- study-target: COI1/JAZ1 co-receptor (Arabidopsis thaliana, UniProt O04197+Q9LMA8)
- Construct: Full-length Arabidopsis thaliana COI1 and ASK1 were co-expressed; Full-length JAZ substrate proteins were expressed as 6×His-fusion proteins in Escherichia coli; GST (cleaved yes); 6xHis; made in house; host or cells: Hi5 insect cells (COI1/ASK1); Escherichia coli (JAZ1)
- Sequence (O04197 whole entry, the tested form may be a part): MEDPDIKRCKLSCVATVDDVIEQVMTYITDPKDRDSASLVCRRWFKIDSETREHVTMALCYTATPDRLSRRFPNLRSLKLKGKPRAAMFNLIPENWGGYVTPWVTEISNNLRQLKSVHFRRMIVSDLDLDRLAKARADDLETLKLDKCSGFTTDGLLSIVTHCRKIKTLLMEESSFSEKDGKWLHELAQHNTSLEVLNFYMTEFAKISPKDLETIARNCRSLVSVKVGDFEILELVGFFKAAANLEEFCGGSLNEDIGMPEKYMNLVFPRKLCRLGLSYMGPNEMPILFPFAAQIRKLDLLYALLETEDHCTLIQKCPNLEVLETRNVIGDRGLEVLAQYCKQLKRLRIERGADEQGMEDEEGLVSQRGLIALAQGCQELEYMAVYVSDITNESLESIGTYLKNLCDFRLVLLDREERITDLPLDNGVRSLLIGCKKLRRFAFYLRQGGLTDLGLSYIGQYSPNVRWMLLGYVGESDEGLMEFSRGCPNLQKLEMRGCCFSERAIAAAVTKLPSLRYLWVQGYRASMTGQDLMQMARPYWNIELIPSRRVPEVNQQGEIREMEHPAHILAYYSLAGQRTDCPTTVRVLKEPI
- Sequence (Q39255 whole entry partner, the tested form may be a part): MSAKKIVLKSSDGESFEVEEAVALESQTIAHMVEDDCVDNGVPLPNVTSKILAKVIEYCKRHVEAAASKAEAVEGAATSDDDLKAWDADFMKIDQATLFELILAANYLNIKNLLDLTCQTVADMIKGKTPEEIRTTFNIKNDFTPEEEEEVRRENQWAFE
- Sequence (Q9LMA8 whole entry, the tested form may be a part): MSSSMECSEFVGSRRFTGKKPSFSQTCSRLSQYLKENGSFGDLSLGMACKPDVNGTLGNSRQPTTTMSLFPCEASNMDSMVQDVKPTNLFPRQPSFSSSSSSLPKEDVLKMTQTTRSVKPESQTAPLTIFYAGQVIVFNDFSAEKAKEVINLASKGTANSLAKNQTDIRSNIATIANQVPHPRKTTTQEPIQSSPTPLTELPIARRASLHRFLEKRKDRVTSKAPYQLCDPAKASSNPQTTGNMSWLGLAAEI
- protocol: Ligand-binding based reconstitution assay (inositol phosphate rescue) with dialyzed COI1/ASK1 and JAZ1
- test-parameters: 1 μM InsP6; read-out: Kd, saturation binding of 3H-coronatine to dialyzed COI1 in the presence of InsP6
result-type: pKd
# reply with the number alone; pKd is -log10 of concentration in mol/L

## Input Would you mind telling me what pKd value was observed for CC[C@H]1C=C(C(=O)N[C@@]2(C(=O)O)C[C@@H]2CC)[C@H]2CCC(=O)[C@H]2C1 [coronatine] ?
## Output 7.43

The measurements presented in this section are drawn from patent US9297017B2.
